# TARGET UNDER TEST: GST-tagged K-Ras mutant / His-tagged hSOS1 (Homo sapiens)
# Sequence (P01116 whole entry G12D, form open): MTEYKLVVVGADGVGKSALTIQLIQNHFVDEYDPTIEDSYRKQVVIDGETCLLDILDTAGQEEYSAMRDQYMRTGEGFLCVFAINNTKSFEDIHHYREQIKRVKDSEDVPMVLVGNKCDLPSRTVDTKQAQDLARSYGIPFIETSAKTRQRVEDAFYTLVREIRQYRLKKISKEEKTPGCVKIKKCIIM
# EXPERIMENT NOTES: HTRF assay, K-Ras mutant / SOS1 interaction
# Format: binding
# TEST SETTINGS: compound nos. 401-703; read-out: IC50 against mutant Kras
MEASURED PARAMETER: IC50

Some entries whose results are on file:
COMPOUND: Oc1ccc2c(c1)N(c1ccc3c(N4CCCCCC4)nc(OCC45CCCN4CCC5)nc3c1F)CCC2
IC50: > 500 nM

COMPOUND: CN1CCC[C@H]1COc1nc(N2CCC(O)C(F)CC2)c2cc(Cl)c(-c3cccc4sc(N)nc34)c(F)c2n1 (stereo partly drawn)
IC50: < 500 nM

COMPOUND: Nc1cc(-c2c(Cl)cc3c(N4CCCCCC4)nc(OCC45CCCN4CCC5)nc3c2F)ccc1F
IC50: > 500 nM

COMPOUND: Fc1c(N2CCCc3cccc(Cl)c32)cc(Cl)c2c(N3CCCCCC3)nc(OCC34CCCN3CCC4)nc12
IC50: > 500 nM

COMPOUND: Cc1ncc(Oc2nc(N3CCCCCC3)c3cc(Cl)c(-c4cccc5sc(N)nc45)c(F)c3n2)cn1
IC50: > 500 nM

Attention now shifts to the item below.
QUERY: Which measured IC50 value corresponds to "Nc1nc2c(-c3c(Cl)cc4c(N5CCCNCC5)nc(OC[C@@]56CCCN5C[C@H](F)C6)nc4c3F)ccc(F)c2s1" ?
RESULT: < 500 nM

###

# TARGET UNDER TEST: wildtype Kras / hSOS1 (Homo sapiens, UniProt P01116)
# Construct: made in house; host or cells: E. coli BL21 (DE3)
# Sequence (P01116 1-188 isoform P01116-2): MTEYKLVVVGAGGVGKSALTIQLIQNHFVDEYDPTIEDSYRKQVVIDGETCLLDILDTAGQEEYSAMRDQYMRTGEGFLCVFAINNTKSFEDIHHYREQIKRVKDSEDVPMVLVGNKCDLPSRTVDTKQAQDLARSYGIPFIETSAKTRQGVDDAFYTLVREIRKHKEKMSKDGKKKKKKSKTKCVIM
# EXPERIMENT NOTES: HTRF assay, wildtype Kras / SOS1 interaction
# Assay type: binding
# TEST SETTINGS: compound nos. 401-703; read-out: IC50 against wildtype Kras
pIC50: −log10 of the molar value.
MEASURED PARAMETER: pIC50

Worked examples, 2 compounds total:
COMPOUND: Nc1nc2cc(-c3c(Cl)cc4c(N5CC6CCC(C5)N6)nc(OCC56CCCN5CCC6)nc4c3F)ccc2o1
pIC50: < 6.30

COMPOUND: Nc1nc2c(-c3c(Cl)cc4c(N5CC6CCC(CO)(C5)N6)nc(OC[C@@]56CCCN5C[C@H](F)C6)nc4c3F)ccc(F)c2s1 (stereo partly drawn)
pIC50: < 6.30

Now examine the next entry.
QUERY: Test system wildtype Kras / hSOS1 (Homo sapiens, UniProt P01116); read-out pIC50; what value for N#Cc1c(N)sc2c(F)ccc(-c3c(Cl)cc4c(N5CCCC6(CCNC6)C5)nc(OC[C@@]56CCCN5C[C@H](F)C6)nc4c3F)c12 (stereo partly drawn) ?
RESULT: < 6.30

###

# TARGET UNDER TEST: wildtype Kras / hSOS1 (Homo sapiens, UniProt P01116)
# Construct: made in house; host or cells: E. coli BL21 (DE3)
# EXPERIMENT NOTES: HTRF assay, wildtype Kras / SOS1 interaction
# Assay type: binding
# TEST SETTINGS: compound nos. 401-703; read-out: IC50 against wildtype Kras
We begin with a simple list: items and their reported IC50.

COMPOUND: N#CCCc1cc2c(N3CC4CCC(C3)N4)nc(OC[C@@]34CCCN3C[C@H](F)C4)nc2c(F)c1-c1cccc2ccc(F)c(Cl)c12 [Compound 451]
TARGET UNDER TEST: wildtype Kras / hSOS1 (Homo sapiens, UniProt P01116)
IC50: < 500 nM

COMPOUND: CN(C)CC1CN(c2nc(OCC34CCCN3CCC4)nc3c(F)c(-c4ccc(F)c5sc(N)nc45)c(Cl)cc23)CCCO1 (stereo not shown) [Compound 681]
TARGET UNDER TEST: wildtype Kras / hSOS1 (Homo sapiens, UniProt P01116)
IC50: > 500 nM

COMPOUND: CC(C)CN1CCCN(c2nc(OCC34CCCN3CCC4)nc3c(F)c(-c4ccc(F)c5sc(N)nc45)c(Cl)cc23)CC1 [Compound 460]
TARGET UNDER TEST: wildtype Kras / hSOS1 (Homo sapiens, UniProt P01116)
IC50: < 500 nM

COMPOUND: Nc1nc2c(-c3c(Cl)cc4c(N5CC6CCC(C5)N6)nc(OCC5(CN6CC[C@H](F)C6)CC5)nc4c3F)ccc(F)c2s1 [Compound 443]
TARGET UNDER TEST: wildtype Kras / hSOS1 (Homo sapiens, UniProt P01116)
IC50: < 500 nM

COMPOUND: N#Cc1c(N)sc2c(F)ccc(-c3c(Cl)cc4c(N5CC6CCC(C5)N6C5CCOC5)nc(OC[C@@]56CCCN5C[C@H](F)C6)nc4c3F)c12 (stereo partly shown) [Compound 605]
TARGET UNDER TEST: wildtype Kras / hSOS1 (Homo sapiens, UniProt P01116)
IC50: > 500 nM

COMPOUND: Cc1ncc(Oc2nc(N3CCCCCC3)c3cc(Cl)c(-c4cccc5sc(N)nc45)c(F)c3n2)cn1 [Compound 461]
TARGET UNDER TEST: wildtype Kras / hSOS1 (Homo sapiens, UniProt P01116)
IC50: < 500 nM

QUERY: Form field: reported IC50 of Cc1ccc2oc(N)nc2c1-c1c(Cl)cc2c(N3CC4CCC(C3)N4)nc(OC[C@@]34CCCN3C[C@H](F)C4)nc2c1F [Compound 546]
RESULT: > 500 nM

QUERY: Recorded IC50 for Nc1nc2c(-c3c(Cl)cc4c(N5CCNCC(F)(F)C5)nc(OCC56CCCN5CCC6)nc4c3F)c(F)ccc2s1 [Compound 633] , please?
RESULT: > 500 nM

QUERY: Requested field: IC50. Item: C#Cc1c(F)ccc2cc(O)cc(-c3ccc4c(N5CCCC6(CNC6)C5)nc(OC[C@@]56CCCN5C[C@H](F)C6)nc4c3F)c12 [Compound 508]
RESULT: > 500 nM

QUERY: Using the record for CN1CCCC1CCNc1nc(N2CC3CCC(C2)N3)c2ccc(-c3ccc(F)c4sc(N)nc34)nc2n1 (stereo not shown) [Compound 697] , report its IC50.
RESULT: > 500 nM

QUERY: // lookup IC50 for Cc1ccc2cnn(CC#N)c2c1-c1c(Cl)cc2c(N3CC4CCC(C3)N4)nc(OC[C@@]34CCCN3C[C@H](F)C4)nc2c1F [Compound 549]
RESULT: > 500 nM

QUERY: Recorded IC50 of CN1CCC[C@H]1COc1nc(N2CCCC(C(=O)O)CC2)c2cc(Cl)c(-c3cccc4sc(N)nc34)c(F)c2n1 (stereo partly shown) [Compound 535] , please.
RESULT: > 500 nM

QUERY: Given the compound Nc1cccc(-c2c(Cl)cc3c(N4CC5CCC(C4)N5)nc(OCC45CCCN4CCC5)nc3c2F)c1F [Compound 440] , what is its reported IC50?
RESULT: < 500 nM

All values here come from patent US20240254129A1.
